# Target under test: GST-Dm-Relish (Drosophila melanogaster, UniProt Q94527 99-473)
# Sequence: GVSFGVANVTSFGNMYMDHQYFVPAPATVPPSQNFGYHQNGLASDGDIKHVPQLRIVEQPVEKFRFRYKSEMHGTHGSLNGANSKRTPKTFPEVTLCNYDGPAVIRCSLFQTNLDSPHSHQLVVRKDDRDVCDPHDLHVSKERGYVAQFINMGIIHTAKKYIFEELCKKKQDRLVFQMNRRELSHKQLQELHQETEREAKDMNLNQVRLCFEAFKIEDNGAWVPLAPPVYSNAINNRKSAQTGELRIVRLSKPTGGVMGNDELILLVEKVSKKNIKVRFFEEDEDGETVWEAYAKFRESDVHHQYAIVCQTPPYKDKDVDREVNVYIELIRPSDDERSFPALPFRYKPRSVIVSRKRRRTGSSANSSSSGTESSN
# Assay remarks: protein-binding microarray (PBM); PBM: ~300 nM protein, 6 mM HEPES pH 7.8, 80 mM KCl, 0.5 mM EDTA, 0.5 mM EGTA, 6% glycerol, 35 ng/ul poly-dIdC, 1% milk, 1 h, room temperature; Ap Aiptasia and Nv Nematostella (sea anemones) / Co Capsaspora / Aq Amphimedon (sponge) / Dm Drosophila / Hu human; RHD is the Rel homology domain; high values mean tight binding
# Measurement setup: dsDNA, one strand shown
Attribute measured: binding signal (z-score)
One number for each entry, in z-score.

Study these solved cases before continuing.
CCGATTAACATCAAATTTCCCGGTGATGTTAATCGGGTCTTGATTCGCTTGACGCTGCTG : 3.56
CCGATTAACATCAGGGTTTTTTATGATGTTAATCGGGTCTTGATTCGCTTGACGCTGCTG : 5.89
CCGATTAACATCAAACCCCCCCATGATGTTAATCGGGTCTTGATTCGCTTGACGCTGCTG : 6.81

// each sequence listed below needs its binding signal
1. CCGATTAACATCAATTCTCCCCCTGATGTTAATCGGGTCTTGATTCGCTTGACGCTGCTG
2. CCGATTAACATCAAGGGCTTCCCTGATGTTAATCGGGTCTTGATTCGCTTGACGCTGCTG

1: 3.06; 2: 7.18

// each sequence listed below needs its binding signal
1. CCGATTAACATCACGTACTTTCCTGATGTTAATCGGGTCTTGATTCGCTTGACGCTGCTG
2. CCGATTAACATCAGGGGAAGTCATGATGTTAATCGGGTCTTGATTCGCTTGACGCTGCTG
3. CCGATTAACATCAAAAATTTCCATGATGTTAATCGGGTCTTGATTCGCTTGACGCTGCTG
4. CCGATTAACATCAGGGATCCCCCTGATGTTAATCGGGTCTTGATTCGCTTGACGCTGCTG

1: 4.78; 2: 6.43; 3: 1.53; 4: 11.1

// each sequence listed below needs its binding signal
1. CCGATTAACATCAGTACTCCCCATGATGTTAATCGGGTCTTGATTCGCTTGACGCTGCTG
2. CCGATTAACATCAAGTCTCCCCCTGATGTTAATCGGGTCTTGATTCGCTTGACGCTGCTG

1. 4.81
2. 2.82

// each sequence listed below needs its binding signal
1. CCGATTAACATCAAAAATTACCCTGATGTTAATCGGGTCTTGATTCGCTTGACGCTGCTG
2. CCGATTAACATCAGGGAAAGAACTGATGTTAATCGGGTCTTGATTCGCTTGACGCTGCTG
3. CCGATTAACATCAGGGGGGGCAATGATGTTAATCGGGTCTTGATTCGCTTGACGCTGCTG
4. CCGATTAACATCACAAATTACCCTGATGTTAATCGGGTCTTGATTCGCTTGACGCTGCTG
5. CCGATTAACATCAGGACACCCCATGATGTTAATCGGGTCTTGATTCGCTTGACGCTGCTG

1. 6.42
2. 6.83
3. 4.29
4. 3.01
5. 1.93

// each sequence listed below needs its binding signal
1. CCGATTAACATCAAGGAAATACCTGATGTTAATCGGGTCTTGATTCGCTTGACGCTGCTG
2. CCGATTAACATCACGGATTCCCCTGATGTTAATCGGGTCTTGATTCGCTTGACGCTGCTG

3.3
8.89
